viability, T/C overview
Test system: 435261-313-R-J1-PDC tumor spheroid viability;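 further: spheroids exposed to compounds for 7 days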
Assay: Anticancer human tumor 435261-313-R-J1-PDC patient-derived colon adenocarcinoma cell line growth inhibition [PI3K]
Settings: second compound 0.316 µM; first compound 0.316 µM; hits give low values; spheroids with HUVEC and MSC
Provide only the numeric value, understood in %.

Sample records with viability, T/C:
Cn1ncc(Cl)c1-c1cc(C(=O)NC(CN)Cc2cccc(F)c2)sc1Cl (stereo not drawn) + Cc1nc(NC(=O)N2CCCC2C(N)=O)sc1-c1ccnc(C(C)(C)C(F)(F)F)c1    38
CC1(C)CCC(CN2CCN(c3ccc(C(=O)NS(=O)(=O)c4ccc(NCC5CCOCC5)c([N+](=O)[O-])c4)c(Oc4cnc5[nH]ccc5c4)c3)CC2)=C(c2ccc(Cl)cc2)C1 + CC(Nc1ncnc2nc[nH]c12)c1cc2cccc(Cl)c2c(=O)n1-c1ccccc1    87.2

Now look at this entry.
Exercise: Reported viability, T/C for 435261-313-R-J1-PDC tumor spheroid viability, given C=CC(=O)N1CCN(c2nc(=O)n(-c3c(C)ccnc3C(C)C)c3nc(-c4c(O)cccc4F)c(F)cc23)C(C)C1 (stereo not drawn) + CC(Nc1ncnc2nc[nH]c12)c1cc2cccc(Cl)c2c(=O)n1-c1ccccc1 ?
Solution: 85.4
